SYSTEM: GPR35 (Homo sapiens)
Construct: ProLink (beta-galactosidase enzyme-donor fragment)
Sequence (Q9HC97 whole entry, the tested form may be a part): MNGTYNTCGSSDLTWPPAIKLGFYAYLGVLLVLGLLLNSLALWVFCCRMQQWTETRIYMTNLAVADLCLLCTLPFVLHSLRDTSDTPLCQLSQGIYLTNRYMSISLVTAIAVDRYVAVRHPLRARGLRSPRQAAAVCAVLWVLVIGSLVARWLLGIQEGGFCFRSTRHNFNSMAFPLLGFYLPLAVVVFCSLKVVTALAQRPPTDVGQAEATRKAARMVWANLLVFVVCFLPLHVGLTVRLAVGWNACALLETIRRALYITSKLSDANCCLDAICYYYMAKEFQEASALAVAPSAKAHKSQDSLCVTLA
EXPERIMENTAL PROTOCOL: gpcrMAX PathHunter beta-arrestin
CONDITION: agonist format, dose response

COMPOUND | UNIT OF MEASUREMENT | EC50
Cc1c(Cl)cccc1NC(=O)c1sc2nc3c(cc2c1N)C(=O)CCC3 [Compound 1] | µM | 7.5

----------
SYSTEM: HTR1B (Homo sapiens, UniProt P28222)
Construct: ProLink (beta-galactosidase enzyme-donor fragment)
Sequence (P28222 whole entry, the tested form may be a part): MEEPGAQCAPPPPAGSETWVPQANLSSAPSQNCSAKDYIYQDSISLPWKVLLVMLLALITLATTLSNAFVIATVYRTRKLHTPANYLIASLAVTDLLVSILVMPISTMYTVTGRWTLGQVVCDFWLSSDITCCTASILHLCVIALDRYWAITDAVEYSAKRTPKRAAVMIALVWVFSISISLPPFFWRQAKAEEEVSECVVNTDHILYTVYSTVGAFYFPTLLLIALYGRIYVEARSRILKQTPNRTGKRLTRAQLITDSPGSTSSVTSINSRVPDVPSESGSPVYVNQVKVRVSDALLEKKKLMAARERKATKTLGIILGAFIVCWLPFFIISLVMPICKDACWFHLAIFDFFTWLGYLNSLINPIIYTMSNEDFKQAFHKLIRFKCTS
EXPERIMENTAL PROTOCOL: gpcrMAX PathHunter beta-arrestin
CONDITION: antagonist format, dose response
MEASURED ATTRIBUTE: IC50

MOL | SYSTEM | MEASURED ATTRIBUTE | RESULT VALUE
Cc1c(Cl)cccc1NC(=O)c1sc2nc3c(cc2c1N)C(=O)CCC3 | HTR1B (Homo sapiens, UniProt P28222) | IC50 | > 50 µM

Data provenance: paper PMC6149898
